System name: KRAS-WT (Homo sapiens)
Sequence (P01116 with tags, fused parts or gaps isoform P01116-2): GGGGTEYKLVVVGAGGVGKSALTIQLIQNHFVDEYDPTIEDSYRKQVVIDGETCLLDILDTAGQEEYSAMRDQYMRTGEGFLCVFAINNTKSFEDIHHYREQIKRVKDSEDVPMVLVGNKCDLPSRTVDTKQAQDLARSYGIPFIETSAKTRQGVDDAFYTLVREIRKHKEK
Measurement protocol: SOS-catalyzed nucleotide exchange assay (Procedure A, TR-FRET), KRAS-WT
Format: biochemical
Stated conditions: nucleotide exchange, read-out: KRAS WT GNE IC50
Result type: IC50 (nM)
Use nM as the unit, but write only the number.

Solved entries:
- Substance smiles: "CCc1c(F)ccc2cc3[nH]ncc3c(-c3nccc4c3sc3nc(OC[C@@]56CCCN5C[C@H](F)C6)nc(N5CCOC[C@@](C)(O)C5)c34)c12"
  Result type: "IC50"
  Reported measurement: 5
- Substance smiles: "CC(C)c1c(Cl)cc2[nH]ncc2c1-c1nccc2c1sc1nc(OC[C@@]34CCCN3C[C@H](F)C4)nc(N3CCOC[C@@](C)(O)C3)c12"
  Result type: "IC50"
  Reported measurement: 58.9
- Substance smiles: "Cc1cc2[nH]ncc2c(-c2nncc3c2sc2nc(OC[C@@]45CCCN4C[C@H](F)C5)nc(N4CCOC[C@@](C)(O)C4)c23)c1C1CC1"
  Result type: "IC50"
  Reported measurement: 13.6

Request the reported IC50 associated with Cc1cc2[nH]ncc2c(-c2nccc3c2sc2nc(OC[C@@]45CCCN4C[C@H](F)C5)nc(N4CCOC[C@@](C)(O)C4)c23)c1C(C)(C)C#N
277

Form field: reported IC50 of C[C@@]1(O)COCCN(c2nc(OC[C@]3(CN4CC5(CC5)C4)CC3(F)F)nc3sc4c(-c5c(C6(F)CC6)c(Cl)cc6[nH]ncc56)nccc4c23)C1
36.2

// IC50 lookup, key: C[C@@]1(O)COCCN(c2nc(OC[C@]3(CN4C[C@H]5C[C@@H]4CO5)CC3(F)F)nc3sc4c(-c5c(C6(F)CC6)c(Cl)cc6[nH]ncc56)nccc4c23)C1
42.5
